Values from DBAASP

// values below are MIC; system is Leuconostoc lactis
Write down the numeric answer in µM and omit the unit.

Example compounds with recorded MIC:
* CC[C@H](C)[C@H](NC(=O)[C@@H](NC(=O)[C@H](CCCCN)NC(=O)[C@H](C)NC(=O)[C@@H](NC(=O)[C@H](CCCCN)NC(=O)[C@H](CCCCN)NC(=O)[C@@H](NC(=O)[C@@H](NC(=O)[C@H](CCCCN)NC(=O)[C@H](Cc1ccccc1)NC(=O)[C@H](CC(C)C)NC(=O)CN)C(C)C)[C@@H](C)CC)C(C)C)C(C)C)C(=O)N[C@@H](CCCCN)C(=O)N[C@@H](CCCCN)C(=O)N[C@@H](CC(C)C)C(N)=O [GLFKVIKKVAKVIKKL] | 3.31
* CC[C@H](C)[C@H](NC(=O)[C@H](CC(C)C)NC(=O)[C@H](CC(=O)O)NC(=O)CNC(=O)[C@@H](NC(=O)CN)C(C)C)C(=O)N[C@@H](CCCN=C(N)N)C(=O)N[C@@H](CCCCN)C(=O)N[C@@H](C)C(=O)N[C@H](C(=O)N[C@@H](CO)C(=O)N[C@H](C(=O)N[C@H](C(=O)N[C@@H](CCCCN)C(=O)N[C@@H](CC(N)=O)C(=O)N[C@H](C(=O)N[C@H](C(N)=O)C(C)C)[C@@H](C)CC)[C@@H](C)CC)C(C)C)C(C)C [GVGDLIRKAVSVIKNIV] | 1.68
* CC[C@H](C)[C@H](NC(=O)[C@@H](NC(=O)CN)C(C)C)C(=O)N[C@@H](CC(=O)O)C(=O)N[C@@H](C)C(=O)N[C@@H](C)C(=O)N[C@@H](CCCCN)C(=O)N[C@@H](CCCCN)C(=O)N[C@@H](Cc1c[nH]c2ccccc12)C(=O)N[C@@H](CC(N)=O)C(=O)N[C@H](C(=O)N[C@@H](CC(C)C)C(=O)N[C@@H](CCCCN)C(=O)N[C@@H](CC(N)=O)C(=O)N[C@@H](CC(C)C)C(=O)N[C@@H](Cc1ccccc1)C(N)=O)C(C)C [GVIDAAKKVVNVLKNLF] | 1.64

API: the following record is the query input.
input: Looking for the measured MIC of CC[C@H](C)[C@H](NC(=O)[C@@H](NC(=O)CN)C(C)C)C(=O)N[C@@H](CC(=O)O)C(=O)N[C@@H](C)C(=O)N[C@@H](C)C(=O)N[C@@H](CCCCN)C(=O)N[C@@H](CCCCN)C(=O)N[C@H](C(=O)N[C@H](C(=O)N[C@@H](CC(N)=O)C(=O)N[C@H](C(=O)N[C@@H](CC(C)C)C(=O)N[C@@H](C)C(=O)N[C@@H](CC(N)=O)C(=O)N[C@@H](CC(C)C)C(=O)N[C@@H](Cc1ccccc1)C(N)=O)C(C)C)C(C)C)C(C)C [GVIDAAKKVVNVLANLF] , can you help?
output: 6.78
